The origin of these recorded values is ChEMBL document CHEMBL5113503.

Hi there, I'd appreciate the recorded IC50 at 72 h for every entry that follows.
- Measurement notes: Cytotoxicity against HUVEC cells assessed as cell growth inhibition measured after 72 hrs by CCK8 assay
- Format: toxicity, cell-based
- Condition description: human

Examples from the recorded data:
Molecule	IC50 at 72 h
C=CC(=O)Nc1cccc(NC(=O)Nc2ccc(-c3cc(C)nc4noc(N)c34)cc2)c1	> 10 µM
C=CC(=O)Nc1ccc(C(=O)Nc2ccc(-c3cc(C)nc4noc(N)c34)cc2)cc1C	3.23 µM
Cc1cc(-c2ccc(NC(=O)Nc3ccc(Cl)c(C(F)(F)F)c3)cc2)c2c(N)onc2n1	> 10 µM
Cc1ccc(F)c(NC(=O)Nc2ccc(-c3cccc4[nH]nc(N)c34)cc2)c1 [LINIFANIB]	4.92 µM
C=CS(=O)(=O)Nc1ccc(C(=O)Nc2ccc(-c3cc(C)nc4noc(N)c34)cc2)cc1	> 10 µM

Below are 4 molecules. Give each one its IC50 at 72 h.
1. C=CC(=O)Nc1ccc(NC(=O)Nc2ccc(-c3cc(C)nc4noc(N)c34)cc2)cc1
2. C=CC(=O)Nc1ccc(C(=O)Nc2ccc(-c3cc(C)nc4noc(N)c34)cc2)cc1Br
3. C=CC(=O)Nc1ccc(C(=O)Nc2ccc(-c3cc(C)nc4noc(N)c34)cc2)cc1
4. C=CC(=O)Nc1ccc(CCC(=O)Nc2ccc(-c3cc(C)nc4noc(N)c34)cc2)cc1

Result:
["> 10 µM", "> 10 µM", "> 10 µM", "> 10 µM"]

====

- Test system: A549
- Measurement notes: Antiproliferative activity human A549 cells assessed as cell growth inhibition measured after 72 hrs by CCK8 assay
- Condition description: A549, 72 h
Hi there, I'd appreciate the recorded IC50 for every entry that follows.

Below are 3 molecules. Give each one its IC50.
1. C=CS(=O)(=O)Nc1ccc(C(=O)Nc2ccc(-c3cc(C)nc4noc(N)c34)cc2)cc1
2. C=CC(=O)Nc1ccc(C(=O)Nc2ccc(-c3cc(C)nc4noc(N)c34)cc2)cc1F
3. C=CC(=O)Nc1ccc(C(=O)Nc2ccc(-c3cc(C)nc4noc(N)c34)cc2)cc1C

Result:
["> 10 µM", "> 10 µM", "> 10 µM"]

====

- Test system: MOLM-13
- Measurement notes: Antiproliferative activity against human MOLM-13 cells harboring FLT3-ITD mutant assessed as cell growth inhibition measured after 72 hrs by CCK8 assay
- Condition description: MOLM-13, 72 h
Hi there, I'd appreciate the recorded pIC50 for every entry that follows.
Answers are plain numbers, as −log10 of the molar value.

Examples from the recorded data:
Entry smiles	Experimental readout	Recorded number
Cc1ccc(F)c(NC(=O)Nc2ccc(-c3cccc4[nH]nc(N)c34)cc2)c1	pIC50	7.72
C=CC(=O)Nc1ccc(CC(=O)Nc2ccc(-c3cc(C)nc4noc(N)c34)cc2)cc1	pIC50	5.21
C=CC(=O)Nc1ccc(CCC(=O)Nc2ccc(-c3cc(C)nc4noc(N)c34)cc2)cc1	pIC50	5.13

Below are 5 molecules. Give each one its pIC50.
1. Cc1cc(-c2ccc(NC(=O)Nc3ccc(Cl)c(C(F)(F)F)c3)cc2)c2c(N)onc2n1
2. C=CC(=O)Nc1ccc(C(=O)Nc2ccc(-c3cc(C)nc4noc(N)c34)cc2)cc1Br
3. C=CC(=O)Nc1ccc(C(=O)Nc2ccc(-c3cc(C)nc4noc(N)c34)cc2)cc1Cl
4. C=CC(=O)Nc1cccc(NC(=O)Nc2ccc(-c3cc(C)nc4noc(N)c34)cc2)c1
5. C=CC(=O)Nc1ccc(NC(=O)Nc2ccc(-c3cc(C)nc4noc(N)c34)cc2)cc1

Result:
[8.34, 5.13, 5.42, 5.64, 6.29]
